Where these numbers come from: patent US5516790A

- Tested on: estrogen receptor (ER)
- test method notes: Uterine estrogen receptor levels, hydroxyapatite assay (Example 8)
- Type: in vivo, female Sprague-Dawley rats
- test parameters: 150 μmol/kg + E-2 (2 × 10 μg/rat), run B
experimental readout: Estrogen Receptor Levels, Cytosolic (fmol/mg protein)

{"columns": ["smiles string", "experimental readout", "reading"],
 "data": [
  ["CCCc1cc(Cl)cc2c1oc1cc(Cl)cc(Cl)c12", "Estrogen Receptor Levels, Cytosolic", 169.4],
  ["CC(C)(C)c1cc(Cl)cc2c1oc1cc(Cl)cc(Cl)c12", "Estrogen Receptor Levels, Cytosolic", 108.6],
  ["CCc1cc(Cl)cc2c1oc1cc(Cl)cc(Cl)c12", "Estrogen Receptor Levels, Cytosolic", 104.3],
  ["CC(C)c1cc(Cl)cc2c1oc1cc(Cl)cc(Cl)c12", "Estrogen Receptor Levels, Cytosolic", 135.5]
]}
